# protocol: Refractive index ne at 23° C., reference wavelength 546.1 nm
# Format: physicochemical
measured quantity: ne (refractive index) of aqueous solution 200 g/L

compound | quantitative result
O=C([O-])c1ccccc1O.[Na+] [sodium salicylate] | 1.3747
O.O.O.O.O.O.O.O=S(=O)([O-])[O-].[Mg+2] [magnesium sulfate heptahydrate] | 1.3529
N#C[S-].[Na+] [sodium thiocyanate] | 1.3765
O.O.[Na+].[Na+].[O]=[W](=[O])([O-])[O-] [sodium tungstate dihydrate] | 1.3531

###

Here, each record is paired with measured ne (refractive index) of the substance data.
# protocol: Refractive index ne at 23° C., reference wavelength 546.1 nm
# Type: physicochemical
# test context: pure substance; 23° C.; 546.1 nm
Counter-ions that a name gives are not always drawn.

molecule | ne (refractive index) of the substance
CCOC(=O)CCC(=O)OCC [diethyl succinate] | 1.4200
CCOCCOCCOCC [diethylene glycol diethyl ether] | 1.4126
CCOC(=O)/C=C/C(=O)OCC [diethyl fumarate] | 1.4419
CCCC(O)C(CC)CO (stereo not drawn) [2-ethylhexane-1,3-diol] | 1.4518
CCCCC(CC)C(=O)OCCOCCOCCOC(=O)C(CC)CCCC (stereo not drawn) [triethylene glycol bis(2-ethylhexanoate)] | 1.4449
CCCCC(CC)COC(=O)CCCCCCCCC(=O)OCC(CC)CCCC (stereo not drawn) [bis (2-ethylhexyl) sebacate] | 1.4511
CCOC(=O)/C=C\C(=O)OCC [diethyl maleate] | 1.4414
CC(=O)OCCOC(C)=O [ethylene glycol diacetate] | 1.4161
COC(=O)CCCCC(=O)OC [dimethyl adipate] | 1.4289
COC(=O)/C=C\C(=O)OC [dimethyl maleate] | 1.4435
CC(=O)CC(C)(C)O [diacetone alcohol, 4-hydroxy-4-methyl-2-pentanone] | 1.4244
CCOC(=O)CC(O)(CC(=O)OCC)C(=O)OCC [triethyl citrate] | 1.4431
